Each recorded value in this set is attributed to PubChem BioAssay (NCI).

- System: NCI-H226 lung
- procedureSummary: NCI tumour cell line growth inhibition, 48 h
Each record here notes measured TGI.
measureName: TGI

| molecule | resultValue |
| --- | --- |
| Cc1cc(C)c2c(c1)C/C(=C\c1cccc(C)c1C(=O)O)C2=O | > 100 µM |
| Nc1nc(Cl)nc2c1ncn2C1OC(CO)C(O)C1F (stereo not drawn) | > 17.3 µM |
| O=C(O)COc1ccc(OCC(=O)O)cc1 | 0.789 µM |

----------
- System: HCT-15 colon
- procedureSummary: NCI tumour cell line growth inhibition, 48 h
Each record here notes measured GI50.

| compound | targetEntity | GI50 |
| --- | --- | --- |
| COc1ccc(Nc2ncnc3ccc(-c4cncc(NS(C)(=O)=O)c4)cc23)cc1Cl | HCT-15 colon | 3.6 µM |
| CC(C)C[C@H](NC(=O)Cn1cccc(CNC(=O)c2ccccc2)c1=O)B(O)O | HCT-15 colon | 4.7 µM |
| COc1ccc(C2NN=C3c4ccccc4CCC32)cc1 (stereo not drawn) | HCT-15 colon | 3.7 µM |
| CN(C)CCN1C(=O)c2cccc3c(/C=C/CN4C(=O)c5cccc6cccc(c56)C4=O)ccc(c23)C1=O | HCT-15 colon | > 100 µM |
| Cc1ccc(S(=O)(=O)n2cc([C@@]3(O)C[C@H](CSC#N)OC3=O)c3ccccc32)cc1 | HCT-15 colon | 13.6 µM |
| O=c1cc(-c2ccccc2)[nH]c2c1CCCC2 | HCT-15 colon | 2.01 µM |
| O=C(O)Cn1c2c(c3c1-c1ccccc1C3=O)C(=O)CCC2 | HCT-15 colon | > 100 µM |
| C=C(C(=O)OC)[C@@H]1CC2OC1C(=O)C(C)CCC/C(C)=C/CC[C@@]2(C)O (stereo partly drawn) | HCT-15 colon | 29.1 µM |
| CCCCC#Cc1c(I)n(C2OC(CO[Si](C)(C)C(C)(C)C)C3OC(C)(C)OC32)c(=O)n(C(=O)c2ccccc2)c1=O (stereo not drawn) | HCT-15 colon | 1.63 µM |
| C=CC1C(CC2OC(CO)C(O)C(O)C2O)OC=C2C(=O)OCCC21O (stereo not drawn) | HCT-15 colon | 19.5 µM |
| COc1cc(Cc2c(C)cc(OC)c3[nH]c4ccccc4c23)cc2c1[nH]c1ccccc12 | HCT-15 colon | 6.89 µM |
| COc1cc(F)c(F)cc1C(=O)c1cnc(NC2CCN(S(C)(=O)=O)CC2)nc1N | HCT-15 colon | 3.46 µM |
| COc1cc(S(=O)(=O)Nc2nc(-c3ccc(N4C(=O)C(C)SC4c4ccccc4O)cc3)cs2)ccc1Cl (stereo not drawn) | HCT-15 colon | 37.3 µM |
